Field: EC50. Provide a value for each of the binders that follow.
EXPERIMENTAL SYSTEM: T1, human PD-1 expressed on cells (human, UniProt Q15116 25-288)
T1 construct: whole, on cells; also called HuT78/PD-1; NK92MI/PD-1
T1 sequence (Q15116 25-288): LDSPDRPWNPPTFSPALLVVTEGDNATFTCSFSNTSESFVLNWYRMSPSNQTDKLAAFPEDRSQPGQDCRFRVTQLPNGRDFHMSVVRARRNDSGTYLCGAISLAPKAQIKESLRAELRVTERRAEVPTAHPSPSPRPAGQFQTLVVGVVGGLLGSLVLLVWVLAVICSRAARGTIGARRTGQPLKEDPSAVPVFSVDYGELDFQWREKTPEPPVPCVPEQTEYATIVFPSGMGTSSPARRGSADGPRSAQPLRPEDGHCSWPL
MEASUREMENT NOTES: FACS on PD-1-expressing cells
Numbers only, in µg/mL.

// each listed binder needs a value for EC50
1. hu326-2 A76V (antibody, V domains shown, mAb; constant regions not restated (hu326-1 is IgG2 / kappa); Forward mutation to human) VH: QVQLVQSGSELKKPGASVKVSCKASGYTFTNYGMNWVRQAPGQGLEWMGWINNNNGEPTYAQGFRGRFVFSLDTSVSTAYLQISSLKTEDTAVYFCARDVMDYWGQGTTVTVSS VL: DIVLTQSPASLAVSPGQRATITCRASESVDNYGYSFMHWYQQKPGQPPKLLIYRASNLESGVPARFSGSGSRTDFTLTINPVEANDTANYYCQQSKEYPTFGGGTKVEIK
2. hu326-2 S85N (antibody, V domains shown, mAb; constant regions not restated (hu326-1 is IgG2 / kappa); Back mutation to murine) VH: QVQLVQSGSELKKPGASVKVSCKASGYTFTNYGMNWVRQAPGQGLEWMGWINNNNGEPTYAQGFRGRFVFSLDTSASTAYLQISNLKTEDTAVYFCARDVMDYWGQGTTVTVSS VL: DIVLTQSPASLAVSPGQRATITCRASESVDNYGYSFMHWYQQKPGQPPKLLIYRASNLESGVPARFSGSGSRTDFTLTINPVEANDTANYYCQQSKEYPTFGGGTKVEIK
3. hu326-2 G63D (antibody, V domains shown, mAb; constant regions not restated (hu326-1 is IgG2 / kappa); Back mutation to murine) VH: QVQLVQSGSELKKPGASVKVSCKASGYTFTNYGMNWVRQAPGQGLEWMGWINNNNGEPTYAQDFRGRFVFSLDTSASTAYLQISSLKTEDTAVYFCARDVMDYWGQGTTVTVSS VL: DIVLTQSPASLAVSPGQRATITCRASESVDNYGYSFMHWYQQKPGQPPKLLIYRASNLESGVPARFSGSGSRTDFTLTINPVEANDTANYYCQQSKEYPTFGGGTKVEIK

Response:
0.102
0.11
0.139
